target: recombinant human ACC1 (rhACC1) (Homo sapiens, UniProt Q13085, DEL44-44); construct: infected with recombinant baculovirus containing full length human ACC1 cDNA; made in house; host or cells: SF9 insect cells (baculovirus); experiment: recombinant hACC1 Transcreener assay (ADP detection FP); type: biochemical; conditions: recombinant hACC1 Transcreener assay, 50 μM ATP, minimum of n=3; read-out: hACC1
pIC50: −log10 of the molar value.
pIC50 by entry:
Attribute Measured: pIC50

smiles=CC(C)n1ncc2c1C(=O)CC1(CCN(C(=O)c3cc4c(-c5ccc(C(=O)O)cc5)ccnc4[nH]3)CC1)C2 measured_result=7.86
smiles=CC(C)n1ncc2c1C(=O)CC1(CCN(C(=O)c3cc(-c4ccc(C(=O)O)cc4)c4cn[nH]c4c3)CC1)C2 measured_result=7.69
smiles=CC(C)(C)n1ncc2c1C(=O)CC1(CCN(C(=O)c3cc(C(=O)O)cc(-c4ncco4)c3)CC1)C2 measured_result=6.20
smiles=CC(C)n1ncc2c1C(=O)CC1(CCN(C(=O)c3cc4c(-c5cccc(C(=O)O)c5)ncnc4[nH]3)CC1)C2 measured_result=7.35
smiles=CC(C)(C)n1ncc2c1C(=O)CC1(CCN(C(=O)c3cc4c(-c5cccc(C(=O)O)c5)cccc4[nH]3)CC1)C2 measured_result=7.81
smiles=CC(C)n1ncc2c1C(=O)CC1(CCN(C(=O)c3cc(-c4cccc(C(=O)O)c4)nc(N(C)C)c3)CC1)C2 measured_result=7.50
smiles=CC(C)n1ncc2c1C(=O)CC1(CCN(C(=O)c3cc(-c4cccc(C(=O)O)c4)[nH]c(=O)c3)CC1)C2 measured_result=5.27
smiles=CNc1ncc(-c2ccc(C(=O)O)cc2)cc1C(=O)N1CCC2(CC1)CC(=O)c1c(cnn1C(C)C)C2 measured_result=7.46
smiles=CC(C)n1ncc2c1C(=O)CC1(CCN(C(=O)c3nc4cc(-c5ccc(C(=O)O)cc5)ccc4[nH]3)CC1)C2 measured_result=7.94
smiles=CC(C)n1ncc2c1C(=O)CC1(CCN(C(=O)c3cc4c(-c5cccc(C(=O)O)c5)cncc4[nH]3)CC1)C2 measured_result=7.99

Origin of values: patent US11673890B2
